- measured_target: HTRA1 (construct not given) (Homo sapiens (Human), UniProt Q92743 23-480, limits assumed)
- Sequence (Q92743 23-480 limits assumed): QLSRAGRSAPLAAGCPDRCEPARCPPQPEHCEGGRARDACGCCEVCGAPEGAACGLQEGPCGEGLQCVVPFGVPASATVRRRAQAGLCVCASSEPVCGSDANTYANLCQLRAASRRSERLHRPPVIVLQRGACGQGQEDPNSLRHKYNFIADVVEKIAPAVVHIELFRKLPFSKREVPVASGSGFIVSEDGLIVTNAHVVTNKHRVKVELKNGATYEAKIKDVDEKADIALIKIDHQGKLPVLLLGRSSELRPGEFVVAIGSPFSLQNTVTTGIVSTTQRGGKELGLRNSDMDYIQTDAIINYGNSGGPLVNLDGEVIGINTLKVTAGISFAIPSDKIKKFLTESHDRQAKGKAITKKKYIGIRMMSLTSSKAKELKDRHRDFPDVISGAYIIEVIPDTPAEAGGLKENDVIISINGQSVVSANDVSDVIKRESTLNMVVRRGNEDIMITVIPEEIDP
- test_method_notes: cell-based or functional assay
value_type: IC50, Protease Assay-H2-Opt peptide
Please append the unit to your numeric answer.

Query: Given the entry antibody 55B12 (antibody, V domains shown, Mouse hybridoma monoclonal antibody) VH: QVQLQQPGAELVKPGASVKLSCKASGYTFTNYWMHWVKQRPGQGLEWIGNIDPSDSETHYNQKFKDKATLAVDKSSSTAYMQLSSLTSEDSAVYYCAREDSSGYGAYWGQGTLVTVSA VL: QIVLTQSPAIMSASPGEKVTMTCSASSSVNYMHWYQQKSGTSPKRWIYDTSKLASGVPDRFSGSGSGTSYSLTISSMEAEDAATYYCQQWSSHPLTFGAGTKLELK , report its measured IC50, Protease Assay-H2-Opt peptide.
Response: 0.13 nM

Reference for the values: patent US20220251241A1
